Source of measurements: ChEMBL document CHEMBL1153748

Measured Cmax accompanies every entry in the list below.
Assay: Cmax in Balb/c mouse at 10 mg/kg, po qd
Settings: in vivo
Output spec: scalar in µM, unitless text.

Answered examples (3):
Cc1cc(OCc2nc(-c3ccc(N4CCOCC4)cc3)c(-c3ccc(-c4ccccc4)cc3)s2)ccc1OCC(=O)O : 2.7
COc1ccc(-c2nc(COc3ccc(OCC(=O)O)c(C)c3)oc2-c2ccc(OC(F)(F)F)cc2)cn1 : 13.7
Cc1cc(OCc2nc(-c3cnc(OC(C)C)nc3)c(-c3ccc(OC(F)(F)F)cc3)s2)ccc1OCC(=O)O : 3.5

Please turn your attention to the following entry.
Incoming: # Cmax lookup, item Cc1cc(SCc2sc(-c3ccc(C(F)(F)F)cc3)nc2C)ccc1OCC(=O)O
Outgoing: 3.9

---

Target: Peroxisome proliferator-activated receptor alpha (Homo sapiens) (UniProt Q07869)
Sequence (whole entry): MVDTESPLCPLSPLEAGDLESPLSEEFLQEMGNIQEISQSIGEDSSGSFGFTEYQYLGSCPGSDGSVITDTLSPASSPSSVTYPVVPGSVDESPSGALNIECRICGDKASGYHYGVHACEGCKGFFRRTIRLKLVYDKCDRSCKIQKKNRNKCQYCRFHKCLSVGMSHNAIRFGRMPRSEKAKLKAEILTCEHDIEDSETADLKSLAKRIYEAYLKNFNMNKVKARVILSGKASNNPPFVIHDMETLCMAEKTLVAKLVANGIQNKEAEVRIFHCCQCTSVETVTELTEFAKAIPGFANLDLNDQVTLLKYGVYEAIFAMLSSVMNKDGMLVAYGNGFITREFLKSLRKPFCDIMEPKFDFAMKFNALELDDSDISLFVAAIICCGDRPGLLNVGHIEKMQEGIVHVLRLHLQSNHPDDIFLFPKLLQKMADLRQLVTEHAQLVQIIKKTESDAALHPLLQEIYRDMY
Assay: Agonist activity at human PPARalpha ligand binding domain expressed in human 293T cells co-transfected with Gal4-DBD by luciferase transactivation assay relative to KRP297
Type: cell-based
Experimental Readout: Efficacy (%)
Output spec: scalar in %, unitless text.

Answered examples (3):
Cc1cc(OCc2nc(-c3ccc(C(=O)N4CCCCC4)cc3)c(-c3ccc(OC(F)(F)F)cc3)o2)ccc1OCC(=O)O : 43
COc1ccc(-c2csc(COc3ccc(OCC(=O)O)c(C)c3)n2)cc1 : 5
COc1ccc(-c2nc(SCCOc3ccc(OCC(=O)O)c(C)c3)sc2-c2ccc(OC)cc2)cc1 : 64

Incoming: # Efficacy lookup, item Cc1cc(OCc2nc(-c3ccc(N4CCOCC4)nc3)c(-c3ccc(OC(F)(F)F)cc3)o2)ccc1OCC(=O)O
Outgoing: 46

Incoming: # repeat for Cc1cc(OCc2nc(-c3cnc(OC(C)C)nc3)c(-c3ccc(OC(F)(F)F)cc3)o2)ccc1OCC(=O)O
Outgoing: 82

Incoming: # repeat for CCOC(Cc1ccc(OCc2nc(-c3ccc(OC)cc3)c(-c3ccc(C(F)(F)F)cc3)s2)cc1)C(=O)O (stereo not drawn)
Outgoing: 37

Incoming: # repeat for Cc1cc(OCc2nc(-c3ccc(N4CCCCC4)cc3)c(-c3ccc(OC(F)(F)F)cc3)s2)ccc1OCC(=O)O
Outgoing: 9

Incoming: # repeat for Cc1cc(OCc2nc(-c3ccc(OC(C)C)cc3)c(-c3ccc(OC(F)(F)F)cc3)o2)ccc1OCC(=O)O
Outgoing: 43

Incoming: # repeat for Cc1cc(OCc2nc(-c3ccc(C(=O)N(C)C(C)C)cc3)c(-c3ccc(OC(F)(F)F)cc3)s2)ccc1OCC(=O)O
Outgoing: 65
